Listing of entries alongside the reported TGI.
System: HCT-116 colon
Experiment: NCI tumour cell line growth inhibition, 48 h

Worked cases, answers included:
CC1=C(C(=O)NNC(=O)CC#N)CC(C(=O)NNC(=O)CC#N)=C(C)N1; > 100 µM
COc1ccc(/C=C/C(=O)c2sc(-n3nc(-c4ccccc4)cc3-c3ccccc3)nc2C)cc1OC; > 100 µM
Cc1cc2c(cc1Cl)SC(NNc1cnc3ccccc3n1)=NS2(=O)=O; > 100 µM

Checklist item: TGI tested on HCT-116 colon, entry COC(=O)c1cc2c3c(cc(NCCN)c2[nH]1)N(C(=O)c1cc2cc(OC)c(OC)c(OC)c2[nH]1)CC3CCl (centres undefined) , value?
0.0256 µM

For "CNc1nc(NC2CCCC2)nc(Sc2ccc(OC)cc2)n1" then?
> 10 µM

Input "CCOC(=O)Cc1nc(/C(C#N)=C/c2ccco2)[nH]c(=O)c1C#N"
> 100 µM

Repeat with COC(=O)C(=O)C(C(=O)C(=O)Nc1cc([N+](=O)[O-])ccc1C#N)c1nc2ccccc2[nH]c1=O (centres undefined)
> 100 µM

How about Cc1cn(C2CC(OC(c3ccccc3)(c3ccccc3)c3ccccc3)C(COC(c3ccccc3)(c3ccccc3)c3ccccc3)O2)c(=O)[nH]c1=O (centres undefined) ?
> 100 µM

Another molecule: "CCN(CCO)CCNc1ccc(C)c2sc3cc(Cl)ccc3c(=O)c12"
2.72 µM

====

Test system: SNB-19 CNS
Assay: NCI tumour cell line growth inhibition, 48 h
Each entry below carries its recorded TGI.

Here's what some known entries look like.
CCOC(=O)Cc1nn2c(=O)cc(C)nc2s1; > 100 µM
FC(F)(F)c1ccc2c(Nc3cccc(C4CC(c5ccccc5)=NN4c4ccc(Cl)cc4)c3)ccnc2c1 (stereo not drawn); 27 µM
NC(N)=N/N=C/c1c(-c2ccccn2)nc2sc(Cl)cn12; 16 µM
COP(=O)(CC(=O)C1OC(OCc2ccccc2)C(OCc2ccccc2)C(OCc2ccccc2)C1OCc1ccccc1)OC (stereo not drawn); > 100 µM
Nc1n[nH]c2ccccc12; > 100 µM
CCN(Cc1c(F)cccc1F)c1ccc(CO)c(Cl)c1; > 100 µM
O=[N+]([O-])c1ccc2nc3c(nc2c1)-c1c2ccccc2cc2cccc-3c12; > 54.5 µM
COc1cc(/C=C/C(=N\NC(=O)c2ccccc2)c2sc(Nc3ccc(Cl)c(Cl)c3)nc2C)ccc1O; > 100 µM
O=C(O)c1cc2ccccc2c(S(=O)(=O)O)c1O; > 100 µM
Oc1c(Br)cc(CN(Cc2cc(Br)c(O)c(Br)c2)C2CCCCC2)cc1Br; > 100 µM

Record request: TGI value, item "COc1ccc2c(c1)[C@@]13CCN4CC5=CCO[C@H]6CC(=O)N2[C@H]1[C@H]6[C@H]5C[C@H]43"
> 100 µM

"CCn1c(-c2nonc2N)nc2ccc(F)cc21" ?
> 25 µM

Can you check "CC[P+](C#Cc1ccccc1)(c1ccccc1)c1ccccc1" next?
17.5 µM

====

Tested on: SF-268 CNS
Experiment: NCI tumour cell line growth inhibition, 48 h
test.readout: TGI

Recorded TGI, per entry:
CCN(C(=O)N[C@H](C(=O)N[C@@H](C)C(=O)OC)C(C)C)c1ccccc1; > 100 µM
CC(=O)[CH-]C(C)=O.CC(=O)[CH-]C(C)=O.N=CC=N.[Sn+2]; 10.5 µM
COc1cc(OC)c(C2c3cc4c(cc3OC(N3CCOCC3)C2C)OCO4)c(OC)c1 (centres undefined); > 100 µM
COc1ccccc1C(=O)c1ccc2ccccc2c1; > 100 µM
CCOC(=O)C1=C(C)NC(=O)N([N+](=O)[O-])C1c1ccccc1C(F)(F)F (centres undefined); > 100 µM
O=C1CCn2c([nH]c3cccc4cccc2c43)=N1; > 100 µM
C=CCOc1c(Br)cc(Br)cc1Br; > 100 µM
CC(C)(C)OC(=O)c1ccc(NCc2cc(O)ccc2O)cc1; 17.3 µM

# input for lookup
Report TGI for "O=C(N/N=C/c1ccc(Cl)cc1Cl)c1ccccc1Nc1cccc(C(F)(F)F)c1" please.
13.3 µM

====

List of TGI values.
System: SK-MEL-28 melanoma
Assay: NCI tumour cell line growth inhibition, 48 h

See these solved cases before continuing.
O=C1CCn2c([nH]c3cccc4cccc2c43)=N1; > 100 µM
CC(=O)c1c(C)n([O-])c2cc(C)c(C)cc2[n+]1=O; > 100 µM
NNC(=O)c1cccc2c1Oc1ccccc1S2; > 100 µM
c1ccc([P+](Cc2csnn2)(c2ccccc2)c2ccccc2)cc1; > 100 µM

Under SK-MEL-28 melanoma: TGI value of "C=CC(=O)Nc1cccc(Nc2nc(Nc3ccc(OCCOC)cc3)ncc2F)c1" ?
24.4 µM

Please answer likewise for "O=c1cc(-c2ccccc2F)[nH]c2cc3c(cc12)OCO3"
> 100 µM

"COc1cc(/C=C\c2ccc(O)cc2)cc(OC)c1OC" , same question.
9.61 µM

CC/C=C\C/C=C\C/C=C\CCCCCCCC(=O)OC(COC(=O)CCCCCCCCCCCCCCCCC)COC1OC(CO)C(O)C(O)C1O (configuration not stated) , same question.
> 25 µM

Query "CCOC(=O)Cc1nn2c(=O)cc(C)nc2s1" next
> 100 µM

====

System: COLO 205 colon
Assay: NCI tumour cell line growth inhibition, 48 h
test.readout: TGI

# count of solved cases: 6
Cc1c(C(=O)NN)nnn1-c1ccnc2c(C(F)(F)F)cccc12; > 100 µM
CCNC(=S)N/N=C/c1ccccn1; > 100 µM
c1ccc([P+](Cc2csnn2)(c2ccccc2)c2ccccc2)cc1; > 100 µM
Cc1ccc(C(=O)CC(Sc2cccc(Cl)c2Cl)c2ccc(Cl)cc2)cc1C (stereo unspecified); 46.5 µM
COc1cc(/C=C2\CC3C4CC=C5CC(N6CCCC6)CC[C@]5(C)C4CC[C@]3(C)C2OC(C)=O)ccc1OCCN1CCCC1 (stereo partly specified); 12.9 µM
NC(=O)NC(=NCc1ccccc1)NCc1ccccc1; > 100 µM

Report TGI for "CCCSc1cc(Cl)nc(N)n1" please.
> 100 µM

Try this compound next: COc1cc(OC)c(C2c3cc4c(cc3OC(N3CCOCC3)C2C)OCO4)c(OC)c1 (stereo unspecified)
> 100 µM

CCOC(=O)C(NC(=O)c1ccc(N=NN(C)C)cc1)C(C)C (stereo unspecified) , same question.
> 100 µM

Next compound up: "O=C(CN=C(CN(c1ccccc1)c1ccccc1)Oc1c(Cl)cc(Cl)cc1Cl)n1cnc2ccccc21"
> 100 µM

And "COc1cc(/C=C/C(=N\NC(=O)c2ccccc2)c2sc(Nc3ccc(Cl)c(Cl)c3)nc2C)ccc1O" ?
> 100 µM

====

System: OVCAR-5 ovarian
Experiment: NCI tumour cell line growth inhibition, 48 h; in the data active = GI50 below about 0.43 µM; inactive = the rest
Entry note: the call must match one of active, inactive

The examples below pair each entry with its known result.
CNC(=O)c1cn(C[C@H](F)CCc2ccc(NC(=O)Cc3cc(OC4CC(F)(F)C4)cc(C)n3)nn2)nn1; inactive
COc1cc2c3c(n(CCCN4CCC(N)CC4)c(=O)c2cc1OC)-c1cc2c(cc1C3=O)OCO2; inactive
Cc1ccc2/c(=C/c3ccc(N(C)C)cc3)c3cc(-c4ccccc4)[n+](C)n3c2c1; inactive
Nc1nc(Nc2ccc(OCc3cccc(F)c3)cc2)c2c(n1)[nH]c1ccc(O)cc12; inactive
COc1ccc(C2C(C#N)=C(N)OC3=C2CCCc2ccc(F)cc23)cc1OC (stereo not drawn); inactive

Which result was noted for this compound in the test: "CN(C)c1nc(-c2cccs2)n2nc(-c3ccc(Cl)cc3)cc2n1"
inactive

Here is the next compound: "NCCN1CCN(c2nccc(-c3ccc4ccccc4c3)n2)CC1"
inactive

Subsequent entry: COCC(=O)OC1CCn2c1nc1c2C(=O)C(C)=C(NC(C)=O)C1=O (stereo not drawn)
inactive

Ok, now CC(=O)n1c(-c2ccc(Cl)cc2)nc2c(c1=O)C(c1ccc(Cl)cc1)c1sc3c(Cl)cccc3c1O2 (stereo not drawn)
inactive

Field entry: "O=C(N/N=C/c1ccc(Cl)cc1Cl)c1ccccc1Nc1cccc(C(F)(F)F)c1"
inactive

// same read-out, input: "C=CCOc1c(Br)cc(Br)cc1Br"
inactive

Next up: "CCCCCCNc1nc(NCCCCCC)c2[nH]c(NCCCCCC)nc2n1"
inactive

Then what about the compound "CCOC(=O)[C@@H](C)C[C@H](Cc1ccccc1)NC(=O)c1csc([C@@H](C[C@H](C(C)C)N(C)C(=O)[C@@H](NC(=O)[C@H]2CCCCN2C)C(C)(C)C)OC(C)=O)n1" ?
active

====

Test system: SF-295 CNS
Test: NCI tumour cell line growth inhibition, 48 h
test.readout: TGI (µM)
Please state the figure in µM; there is no need to write the unit.

CCCCCCNc1nc(NCCCCCC)c2[nH]c(NCCCCCC)nc2n1; 31.3

Next up:
What does the data say about its TGI? Entry: "COc1ccc(/C=C/C(=O)c2sc(-n3nc(-c4ccccc4)cc3-c3ccccc3)nc2C)cc1OC"
74.2

Hello, the source for this data is PubChem BioAssay (NCI), in case you need it.
